Target: human carbonic anhydrase 9 (CAIX) (human, UniProt Q16790 38-459)
Experiment: FACS competition on HT-29 cells against tracer 3BP-2776; pIC50 category A = pIC50 >8.0
Protocol: CAIX-expressing human HT-29 colorectal cancer cells (DSMZ, RRID: CVCL_0320) were cultured in McCoys's 5A modified medium (Biochrom, #F1015) including 10% fetal calf serum (FCS), 2 mM L-glutamine, 100 U/ml penicillin and 100 μg/mL streptomycin. […] Cells were washed twice with ice-cold FACS buffer and analyzed in an Attune NxT flow cytometer (Thermo Fisher). Median fluorescence intensities (MFI) of the APC/Cy5-channel were calculated by Attune NxT software.
Starred links: 1 amine or outer side, 2 acyl side, 3 side chain; linkers in the order of their positions; H or OH if unused. Positions of bridges follow the written chain, without caps; N, C: chain ends. Non-standard residues stand in square brackets, D forms with d. *: point of attachment. mXylylene = c1cc(C[*:1])cc(C[*:2])c1; Hexanoyl = CCCCCC(=O)*; Sar = CNCC(=O)O
This section presents binders with their documented pIC50 values.

| binder | pIC50 |
| --- | --- |
| Ac-VYCE[Sar]DWLTWGC-NH2 (linker 3-12 via mXylylene; SMILES CC(=O)N[C@H](C(=O)N[C@@H](Cc1ccc(O)cc1)C(=O)N[C@H]1CSCc2cccc(c2)CSC[C@@H](C(N)=O)NC(=O)CNC(=O)[C@H](Cc2c[nH]c3ccccc23)NC(=O)[C@H]([C@@H](C)O)NC(=O)[C@H](CC(C)C)NC(=O)[C@H](Cc2c[nH]c3ccccc23)NC(=O)[C@H](CC(=O)O)NC(=O)CN(C)C(=O)[C@H](CCC(=O)O)NC1=O)C(C)C, also called Ac-Val-Tyr-[Cys(3MeBn)-Glu-Nmg-Asp-Trp-Leu-Thr-Trp-Gly-Cys]-NH2) [3BP-3304] | > 8 pic50 |

Query: May I ask what pIC50 has been recorded for Hexanoyl-VYCEGDWLTWQC-NH2 (linker 3-12 via mXylylene; SMILES CCCCCC(=O)N[C@H](C(=O)N[C@@H](Cc1ccc(O)cc1)C(=O)N[C@H]1CSCc2cccc(c2)CSC[C@@H](C(N)=O)NC(=O)[C@H](CCC(N)=O)NC(=O)[C@H](Cc2c[nH]c3ccccc23)NC(=O)[C@H]([C@@H](C)O)NC(=O)[C@H](CC(C)C)NC(=O)[C@H](Cc2c[nH]c3ccccc23)NC(=O)[C@H](CC(=O)O)NC(=O)CNC(=O)[C@H](CCC(=O)O)NC1=O)C(C)C) [3BP-3107] ?
Reply: > 8 pic50
